# Test system: K4 kissing-loop RNA reporter
# Test details: apparent KD of K4 kissing-loop reporter; higher = weaker reporter binding
# Reported conditions: Eterna round: R107; input ligand: none
Measured metric: apparent KD of K4 kissing-loop reporter (µM)
One number for each entry, in µM.

QUERY: Requested read-out apparent KD of K4 kissing-loop reporter, target or system K4 kissing-loop RNA reporter, entry AGAGUUAUAUGAGGAUAUGGGAUAGUAACUGAGUGAGUUAUAGUGUAGUUUGUUUAGUGAUGUUAUUUAGAAGGCGUGAGUGAUG [wwwsemullin]
RESULT: 0.147

QUERY: Requested read-out apparent KD of K4 kissing-loop reporter, target or system K4 kissing-loop RNA reporter, entry AAAAUAAUCCAGUGAUGUUGGUAUCCAGAUACCAGCCAGGAAACUGGCCCUUGGCAGCUGGCGACGUACAAAAUAAGUACGUCGU [#OpenEnded 11 #StaticStem #K4Early]
RESULT: 0.47

QUERY: Requested read-out apparent KD of K4 kissing-loop reporter, target or system K4 kissing-loop RNA reporter, entry CGGUACGUCGCAGGAUAUGUAAAUGUAAGUGAUGUUUACAUACCAUGCUGGCGAAAGCCAGCAUGGACAGAAGGGCGACGUACCG
RESULT: 0.47

QUERY: Requested read-out apparent KD of K4 kissing-loop reporter, target or system K4 kissing-loop RNA reporter, entry UAUGUACACGGGUAGUUGUACAUCGAGGAAGGAGCGUGCGCAGGCACAGGUAGGUCGCCUCAGCGCACGAGUGAUGUUCGUGGGC [Xexegeus]
RESULT: 0.257

QUERY: Requested read-out apparent KD of K4 kissing-loop reporter, target or system K4 kissing-loop RNA reporter, entry GAAUAAUAUGUACCAGUGAUGUUGGUACAACGAGGACCGGUACGGCCGCCACUCGGAUACGAGUGGAUACAUCACUGACCAUUCG [(H1)-(H2)-(Trp1)-(Trp2)-(T)'-(H)'-(T)''_Design9];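 further: bound reporter read as fluorescence of individual clusters on recovered sequencing chips by microscopy, with normalized cluster intensities fitted with a binding model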
RESULT: 0.368

Please state, for each entry, its recorded apparent KD of K4 kissing-loop reporter.
1. AAACAUCACUGGGAGUGAUGUUCUCAGUGACGAGGACCGGUACGGCCGCCACUCGCGAGAGAUAUAAAUAAGUAAUGACAUCAUU [Excl Tryptophan A V1]
2. CGUGAGUGCCGUCAGUCAUCGGUCCAUGCACGAGGACCGGUACGGCCGCCACUCGAGCGUGGCAGUGAUGUUGCCAGCGCACUAA [KL-XTryp-A12]

RESULT:
1. 0.36
2. 0.103

Please state, for each entry, its recorded apparent KD of K4 kissing-loop reporter.
1. AGAACUGUCUGAGAUACCAGCUAAGGAGUGAUGUUCCGGCUCGACGAAACGUCGAGCCAUAGCCCUUGGCAGCUCAGACAGUUCA [#27 K4 Theophylline B Same State]
2. GCUAUGGUAGGAAGGAGCGCGGACGGUAUUUGUCGAGUGAUGUUCGAUUCUUUAAUUUGAACGCAGGUAGGUCGCCUACUAUAGC [Arginine B K4 30]
3. GCCGUAGAUUGAAGGAGCGCUAGUAGUGAUGUUGCUUGCACUUCUUGUGUAAGAAGAACCUAGCAGGUAGGUCGCAAUCUACGGC
4. GAUGAACUAUUCGAUACCAGACUACAUGAGUGAUGUUCAUGUGUGUCAAUGUCUAUGUCAGUCCCUUGGCAGCGAAUAGUUUAUC [KL-XTheo-B27]
5. AAGUGAUGUUGUAGUGAUGUUGUGAUGUUGCAGGAUAUAUAGUGAUGUAGAAGGGUAAGGACUGUUUUUUUUUUUGAGUGAUGUU [ookooyzrmullin]

RESULT:
1. 0.379
2. 0.226
3. 0.728
4. 0.125
5. 0.0705

----------
# Test system: MS2 coat protein
# Test details: apparent KD of MS2 coat protein; designed switch direction (-1 OFF switch, 1 ON switch): -1; higher = weaker reporter binding
# Reported conditions: input ligand: none
For each of the sequences below, state its apparent KD of MS2 coat protein.
One number for each entry, in nM.

QUERY: Recorded apparent KD of MS2 coat protein of CGUCUGUCAGGAUAUAGUUACAUAGACAUGAGGAUCACCCAUGUGACGUGGGACUAGUGACUAGAAGGGACGAACG [EX5 #71] (Eterna round: R97, puzzle: Exclusion 5) , please.
RESULT: 28.8

QUERY: Recorded apparent KD of MS2 coat protein of GCUGGUCGAGGAUAUACAAUCGUGCUUCGGCACGUAAGGUCACAUGAGGAUCACCCAUGUAGAAGGCGACCAGC [E2/2-A2] (Eterna round: R97, puzzle: Exclusion 2) , please.
RESULT: 30.9

QUERY: Recorded apparent KD of MS2 coat protein of ACUCUUCUAGUUAGGAUAUGCAUCGGGCUUCCGCAGCAGAAGGAACAUGAGGAUCACCCAUGUCAAAUAAAAUC (Eterna round: R97, puzzle: Brourd's mod of Exclusion 4) , please.
RESULT: 20.6

QUERY: Recorded apparent KD of MS2 coat protein of GGUCAGCUAGGAUAUACAUGAGGAUCACCCAUGUACUGACCCAUGCGGGAGCCUGCAUGUAGAAGGAGCAAUAU [Onzatiqula] (Eterna round: R97, puzzle: Exclusion 3) , please.
RESULT: 55.3

QUERY: Recorded apparent KD of MS2 coat protein of AAAUUAGCAAGUAGGUCCGACAUGAGGAUCACCCAUGUUAUCUGAAAUAACGCAGCAUGAUUGUGAGCUCGUCUUAG [Sensor-V1 #6] (Eterna round: R97, puzzle: Sensor, turn-off variant 1) , please.
RESULT: 105

QUERY: Recorded apparent KD of MS2 coat protein of ACGCGAUAUGGCGUAACGCGACAUGAGGAUCACCCAUGUAACGAGGAUAUGAUCUCGAGAGAGGGUCAGAAGGCGUUACAAUAU [Eternabot solution 23] (Eterna round: R96, puzzle: Exclusion NG 3) , please.
RESULT: 74.3

Please state, for each entry, its recorded apparent KD of MS2 coat protein.
1. AAUAAGUAUGUGAGGAUAUUGAGGAGGAGGAGGGACAAGAAGGCACAUGAGGAUCACCCAUGUAGGAAAGGACG [JR_BMEx4_Sub002] (Eterna round: R97, puzzle: Brourd's mod of Exclusion 4)
2. ACAAGCUUUUAGAUUCUUAACAUGAGGAUCACCCAUGUGCUCGUCUUAUUGGCCGGCCGGCCGCCGGCCGGCCGGCC (Eterna round: R97, puzzle: Sensor, turn-off variant 1)

RESULT:
1. 28
2. 40.9

Please state, for each entry, its recorded apparent KD of MS2 coat protein.
1. CGGUUGUGAGGAUAUACAUGAGGAUCACCCAUGUCCAUCCUUUCGGUAACGAUAGAACGUAGAAGGCGCACCGU [Eternabot (L2) Solution 55] (Eterna round: R97, puzzle: Exclusion 3)
2. UACAUGAGGAUCACCCAUGUUUUGUCGUGUAUGGUAUUUAUCUAGGAUAUCAAGUUAUUUAGUUAUGAGAAGGAGAAUAUUAAU [JMF's solution 35] (Eterna round: R96, puzzle: Exclusion NG 3)

RESULT:
16
40.4

----------
# Test system: MS2 coat protein
# Test details: apparent KD of MS2 coat protein; designed switch direction (-1 OFF switch, 1 ON switch): 1; higher = weaker reporter binding
# Reported conditions: Eterna round: R95; input ligand: FMN 200 uM
Measured metric: apparent KD of MS2 coat protein (nM)
Give bare numbers, in nM.

Here's what some known entries look like.
QUERY: Requested read-out apparent KD of MS2 coat protein, target or system MS2 coat protein, entry GGUGAGAGAGUCAAGGAUAUUAAAGGAGAGACAUGAGGAUCACCCAUGUAAGAGAGAGAGGAGAGUGAGAAGGUGAAGAGAGUGG [Altered State 2-25 - Jieux - Same State 2] (puzzle: Same State 2)
RESULT: 30.4

QUERY: Requested read-out apparent KD of MS2 coat protein, target or system MS2 coat protein, entry CGUCCGGCCUGUGCUGGCCGGUAGCUUGUACAUGAGGAUCACCCAUGUUCUUGUGCAGGCUUUUUGCUCGUCUUGUG [salish99_mir208a_016] (puzzle: Sensor for hsa-mir-208a)
RESULT: 365

Now turn to the next sequence.
QUERY: Requested read-out apparent KD of MS2 coat protein, target or system MS2 coat protein, entry CGUCCGGCCUGUGCUGGCCGGUGGCUUGUACAUGAGGAUCACCCAUGUUCUUGUGCUGGCUGUUUGCUCGUCUUGUG [salish99_mir208a_r3_021] (puzzle: Sensor for hsa-mir-208a)
RESULT: 50.2

----------
# System: MS2 coat protein
# Test details: apparent KD of MS2 coat protein, switch ON state; designed switch direction (-1 OFF switch, 1 ON switch): 1; higher = weaker reporter binding
# Reported conditions: FMN input: 0 or 200 uM; Eterna round: R93 (includes R88 designs)
Measured metric: apparent KD of MS2 coat protein
Just the number plus its unit, please.

Here's what some known entries look like.
QUERY: Recorded apparent KD of MS2 coat protein of AAACCACAUGAGGAUCACCCAUGUAAAAAAAACACAGGAUAUGGAAACACGAAAGUGAAACCAGAAGGGUGAAAAA [77%, Mat - Mod of Eli, 26] , please.
RESULT: 18.4 nM

QUERY: Recorded apparent KD of MS2 coat protein of AUGAAUAGAAUCGAGGAUAUCCAGUCAUGAACAUGAGGAUCACCCAUGUAAGAGAGAGUAUAAUGGGAGAAGGCGAGUAAUAGAU [JR_SS002_Sub1702] , please.
RESULT: 27 nM

Now turn to the next sequence.
QUERY: Recorded apparent KD of MS2 coat protein of AAGAAACAUGAGGAUCACCCAUGUACCCAAAAGGCAGGAUAUGGGAAAGAAAGAAAGAAACCAGAAGGGCCAUGAA [Sogdianus] , please.
RESULT: 30.1 nM
